# subject-of-test: UniProt:V5RMU9
# Sequence (V5RMU9 entry or part of it): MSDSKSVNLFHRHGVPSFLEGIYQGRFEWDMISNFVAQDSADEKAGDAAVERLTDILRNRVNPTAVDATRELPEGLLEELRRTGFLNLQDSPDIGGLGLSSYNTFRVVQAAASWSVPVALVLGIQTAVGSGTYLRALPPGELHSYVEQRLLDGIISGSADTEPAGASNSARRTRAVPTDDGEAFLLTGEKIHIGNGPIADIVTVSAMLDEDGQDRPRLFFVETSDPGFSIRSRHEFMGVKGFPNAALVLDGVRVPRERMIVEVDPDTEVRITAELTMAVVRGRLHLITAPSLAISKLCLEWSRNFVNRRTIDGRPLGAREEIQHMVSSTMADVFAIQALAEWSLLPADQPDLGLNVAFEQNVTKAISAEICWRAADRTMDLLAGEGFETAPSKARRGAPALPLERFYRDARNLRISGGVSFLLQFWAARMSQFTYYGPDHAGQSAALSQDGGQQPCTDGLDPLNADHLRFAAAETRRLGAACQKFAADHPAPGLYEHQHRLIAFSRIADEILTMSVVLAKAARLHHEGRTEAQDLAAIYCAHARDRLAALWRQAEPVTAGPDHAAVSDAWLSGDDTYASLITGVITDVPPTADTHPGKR
# experimental-details: Semiquantitative epoxide capture assay (EpnF-catalyzed epoxyketone formation)
# Assay type: biochemical
# experimental-conditions: 1 μM EpnF, 240 μM β-ketoacid substrate (FIG. 2)
# Experimental: Recombinant EpnF was diluted to 1 μM in 180 μL EpnF Buffer in an 1.5 mL Eppendorf tube. The β-ketoacid 11 was added at various concentrations to a total reaction volume of 200 μL. The mixture was incubated in a heated shaker at 37° C. and 225 rpm for 1 h. […] The plate was cooled on ice for 5-10 min, then analyzed (λex 370 nm, λem 430 nm) on a fluorescence plate reader (Molecular Devices Spectramax M3). […]
assay-metric: EpnF-catalyzed conversion to epoxyketone (epoxide capture)

[[record]]
molecule = "CC(C)CCCCC(=O)N[C@H](C(=O)N[C@@H](CC(C)C)C(=O)C(C)(C)C(=O)O)C(C)O (stereo partly drawn) [Compound 11l]"
subject_of_test = "UniProt:V5RMU9"
result = "tolerated"

[[record]]
molecule = "CC(C)CCCCC(=O)N[C@@H](C)C(=O)N[C@@H](CC(C)C)C(=O)C(C)(C)C(=O)O [Compound 11j]"
subject_of_test = "UniProt:V5RMU9"
result = "tolerated"

[[record]]
molecule = "CCCC(=O)N[C@@H](CO)C(=O)N[C@@H](CC(C)C)C(=O)C(C)(C)C(=O)O [Compound 11n]"
subject_of_test = "UniProt:V5RMU9"
result = "permitted"

[[record]]
molecule = "CCCCCCCCCC(=O)N[C@@H](CO)C(=O)N[C@@H](CC(C)C)C(=O)C(C)(C)C(=O)O [Compound 11q]"
subject_of_test = "UniProt:V5RMU9"
result = "permitted"


----------
# experimental-details: Stability of β-ketoacid substrates (decarboxylation, 1H-NMR or SPE-MS/MS)
# Type: physicochemical
# experimental-conditions: neat lyophilized powder, neat, 4° C.
assay-metric: half-life

Input line: Find the recorded half-life belonging to CC(C)CCCCC(=O)N[C@@H](CO)C(=O)N[C@@H](CC(C)C)C(=O)C(C)(C)C(=O)O [Compound 11a] and report it.
Output line: > 14 days

----------
# experimental-details: Stability of β-ketoacid substrates (decarboxylation, 1H-NMR or SPE-MS/MS)
# Format: physicochemical
# experimental-conditions: RPMI medium, RPMI, 37° C.
assay-metric: half-life at 100 μM (h)
Numbers only, in h.

Input line: Find the recorded half-life at 100 μM belonging to CC(C)CCCCC(=O)N[C@@H](CO)C(=O)N[C@@H](CC(C)C)C(=O)C(C)(C)C(=O)O [Compound 11a] and report it.
Output line: 2.5

----------
# experimental-details: Stability of β-ketoacid substrates (decarboxylation, 1H-NMR or SPE-MS/MS)
# Type: physicochemical
# experimental-conditions: neat lyophilized powder, neat, 25° C.
assay-metric: half-life (h)
Give bare numbers, in h.

Input line: Find the recorded half-life belonging to CC(C)CCCCC(=O)N[C@@H](CO)C(=O)N[C@@H](CC(C)C)C(=O)C(C)(C)C(=O)O [Compound 11a] and report it.
Output line: 120

----------
# Tested on: U266 multiple myeloma
# experimental-details: Cytotoxicity of epoxyketones, CellTitre-Glo, 48 h
# Format: cell-based
# experimental-conditions: Homo sapiens, U-266; U266, 48 h; read-out: log IC50 (converted)
Can you tell me IC50 for the items I'm about to list?
One number for each entry, in nM.

Solved cases below.
[[record]]
compound = "CC(C)CCCCC(=O)N[C@@H](CO)C(=O)N[C@@H](CC(C)C)C(=O)[C@@]1(C)CO1 [Compound 12a]"
subject_of_test = "U266 multiple myeloma"
numeric_value = 229

[[record]]
compound = "CC(C)CCCCC(=O)N[C@H](C(=O)N[C@@H](CC(C)C)C(=O)[C@@]1(C)CO1)[C@@H](C)O [Compound 12l]"
subject_of_test = "U266 multiple myeloma"
numeric_value = 2140

[[record]]
compound = "CC(C)CCCCC(=O)N[C@@H](C)C(=O)N[C@@H](CC(C)C)C(=O)[C@@]1(C)CO1 [Compound 12j]"
subject_of_test = "U266 multiple myeloma"
numeric_value = 2190

[[record]]
compound = "CC(C)C[C@H](NC(=O)[C@H](CO)NC(=O)c1ccccc1)C(=O)[C@@]1(C)CO1 [Compound 12o]"
subject_of_test = "U266 multiple myeloma"
numeric_value = 2690


Input line: Find the recorded IC50 belonging to CCCC(=O)N[C@@H](CO)C(=O)N[C@@H](CC(C)C)C(=O)[C@@]1(C)CO1 [Compound 12n] and report it.
Output line: 4790
